The origin of these recorded values is the RNAGym collection of RNA variant scans (doi:10.1073/pnas.2313332121).

B1: TPR 5TU (parent)
chain: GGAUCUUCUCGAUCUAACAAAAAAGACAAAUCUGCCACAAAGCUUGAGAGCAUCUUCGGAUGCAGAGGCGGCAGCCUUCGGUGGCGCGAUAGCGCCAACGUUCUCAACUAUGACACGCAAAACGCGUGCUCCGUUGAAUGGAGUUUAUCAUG

# Variants of: B1
# protocol.details: polymerase ribozyme fitness, log enrichment relative to wild type (log ratio); higher = more active; in vitro selection for triplet polymerase activity
Variants at the floor of the assay were thinned out.
observed.property: polymerase ribozyme fitness (log ratio)

Could you share which polymerase ribozyme fitness (log ratio) value was measured for A12C A20U C79U G84U ?
≤ -4.2

polymerase ribozyme fitness (log ratio) for A47U G81C C85G G86U C95U A106C G143A ?
≤ -4.2

Returns the measured polymerase ribozyme fitness (log ratio) for the input variant. Input: A16G G34U A52U A60G C72G G88U A91U G140C
≤ -4.2

# query: polymerase ribozyme fitness (log ratio) of entry U31A A106G
0.863

Sample C93U G152A — what was its polymerase ribozyme fitness (log ratio)?
-3.11

Query: polymerase ribozyme fitness (log ratio); subject: A22U C43U A47C A91C C108U A115U A121C
≤ -4.2

What value of measured polymerase ribozyme fitness (log ratio) is listed for A17U A40G C54U G83A A91C G126C ?
≤ -4.2

Field request: polymerase ribozyme fitness (log ratio) | item: C18G A21C A49C C93A
≤ -4.2

Quick check: polymerase ribozyme fitness (log ratio) of C32U U56A G58A G68A C76A C93A ?
≤ -4.2

Could you share which polymerase ribozyme fitness (log ratio) value was measured for A19U U53C C87G ?
≤ -4.2

Field request: polymerase ribozyme fitness (log ratio) | item: C32G G50C C51U G88A A110G
-4.19

polymerase ribozyme fitness (log ratio) lookup needed for C51A C93U , thanks.
-2.22

Which polymerase ribozyme fitness (log ratio) is reported for this variant? A60U U61A G86A C93A A110C G133A
≤ -4.2

# query: polymerase ribozyme fitness (log ratio) of entry A17G A26C A40U A47C G59A G68A U109G C116G A119C
≤ -4.2

# lookup: polymerase ribozyme fitness (log ratio) of U4C U15C A22C A29U C43G U44A U45G C57U G59U C93U
≤ -4.2

Give its polymerase ribozyme fitness (log ratio) value. Item: G46A C85A C87U C99A
≤ -4.2

Consider the variant C27G A37U U55A U56A G70A G84C C108U and give its measured polymerase ribozyme fitness (log ratio).
≤ -4.2

Find the recorded polymerase ribozyme fitness (log ratio) belonging to A37U A64C U135C and report it.
≤ -4.2

# get_value(readout='polymerase ribozyme fitness (log ratio)', item= G11C U53A C72G C79A U82A U90G A106C )
≤ -4.2

Data request, read-out polymerase ribozyme fitness (log ratio), for U4C U9A A41C G48C C51A G68A G83C
≤ -4.2

Would you kindly share the measured polymerase ribozyme fitness (log ratio) for U9C G58C A91G C105G A110G ?
≤ -4.2

Fill blank: measured polymerase ribozyme fitness (log ratio) of the variant U56G C75G C93U is ____.
-4.19

# get_value(readout='polymerase ribozyme fitness (log ratio)', item= A22C G86U C131A )
≤ -4.2

Give the measured polymerase ribozyme fitness (log ratio) of A23U G46U G67U C96G U146G U151A .
≤ -4.2

Which polymerase ribozyme fitness (log ratio) is reported for this variant? G94C U135A G141A
-2.22

Would you kindly share the measured polymerase ribozyme fitness (log ratio) for A66G G83C U111G ?
≤ -4.2

Using the record for A21U A26G G86U C118U , report its polymerase ribozyme fitness (log ratio).
≤ -4.2

Would you mind telling me what polymerase ribozyme fitness (log ratio) value was observed for A24G G124U ?
-4.06

What polymerase ribozyme fitness (log ratio) value was documented for this variant, A52G G71C C95A C131A U139A ?
≤ -4.2

Recorded polymerase ribozyme fitness (log ratio) of C8G A52U C95U U104G G140U , please.
≤ -4.2

Using the record for G83C G94U , report its polymerase ribozyme fitness (log ratio).
-2.72

# get_value(readout='polymerase ribozyme fitness (log ratio)', item= A16C A41C C57G G59C U135A )
-3.85

Requested field: polymerase ribozyme fitness (log ratio). Item: A21G G42A A49C A66U U82C C87U U135G U145A U148A
≤ -4.2

// returns reported polymerase ribozyme fitness (log ratio) for input A3C U7A C10U U53A G92C A138G
≤ -4.2

Data request, read-out polymerase ribozyme fitness (log ratio), for A16C C85U
-1.75

Which polymerase ribozyme fitness (log ratio) is listed for C87A U146G ?
≤ -4.2

Returns the measured polymerase ribozyme fitness (log ratio) for the input variant. Input: A107U C118G A147U C149G U151G
≤ -4.2

What does the record list as polymerase ribozyme fitness (log ratio) for C14G C72U ?
-3.04

I am curious: what polymerase ribozyme fitness (log ratio) value has been reported for C93G A119U ?
-3.51

Give its polymerase ribozyme fitness (log ratio) value. Item: U31A C75G C76G C96A U145G
≤ -4.2

Name the reported polymerase ribozyme fitness (log ratio) value associated with the variant A73C C93G
≤ -4.2

Could you share which polymerase ribozyme fitness (log ratio) value was measured for A3C A47U ?
-0.813

Fill in the blank: the reported polymerase ribozyme fitness (log ratio) of C87G U144G is ____.
≤ -4.2

Sample A17C C38U A41C A60C — what was its polymerase ribozyme fitness (log ratio)?
-1.39

Requested read-out: polymerase ribozyme fitness (log ratio). Entry: C63U C85U C95U C149U
-1.91

Any idea what polymerase ribozyme fitness (log ratio) was measured for C93G A98U C114A ?
-3.85
